- Measurement Target: Recombinant human VAP-1 SSAO (Homo sapiens, UniProt Q16853)
- Construct: expressed in transfected cells; host or cells: CHO cells (clarified NP40 lysate used directly)
- Sequence (Q16853 whole entry): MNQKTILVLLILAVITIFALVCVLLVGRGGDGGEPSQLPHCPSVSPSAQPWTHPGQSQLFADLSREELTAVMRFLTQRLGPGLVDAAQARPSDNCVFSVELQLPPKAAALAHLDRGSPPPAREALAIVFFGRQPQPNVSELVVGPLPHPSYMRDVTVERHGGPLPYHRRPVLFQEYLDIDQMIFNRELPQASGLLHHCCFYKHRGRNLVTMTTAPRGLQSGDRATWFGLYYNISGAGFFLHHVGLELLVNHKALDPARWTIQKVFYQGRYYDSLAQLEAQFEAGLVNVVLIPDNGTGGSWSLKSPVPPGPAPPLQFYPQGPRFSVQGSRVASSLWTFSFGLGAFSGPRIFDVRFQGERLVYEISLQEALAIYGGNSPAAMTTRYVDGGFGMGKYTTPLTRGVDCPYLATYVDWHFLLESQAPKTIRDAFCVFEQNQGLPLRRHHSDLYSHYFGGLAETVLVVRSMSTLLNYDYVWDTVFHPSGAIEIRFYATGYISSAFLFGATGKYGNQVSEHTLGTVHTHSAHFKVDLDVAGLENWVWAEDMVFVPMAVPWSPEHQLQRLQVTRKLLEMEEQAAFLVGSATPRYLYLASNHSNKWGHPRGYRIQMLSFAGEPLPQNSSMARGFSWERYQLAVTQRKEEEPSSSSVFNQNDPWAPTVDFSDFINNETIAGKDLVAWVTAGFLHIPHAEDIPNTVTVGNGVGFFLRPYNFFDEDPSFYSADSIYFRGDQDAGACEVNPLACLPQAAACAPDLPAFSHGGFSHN
- Test Name: VAP-1 SSAO activity, coupled colourimetric assay (benzylamine substrate)
- Format: biochemical
- Condition Details: ratio of total rat MAO IC50 to human VAP-1 SSAO IC50
- Experimental: VAP-1 SSAO activity was measured using the coupled colourimetric method essentially as described for monoamine oxidase and related enzymes. Recombinant human VAP-1 SSAO expressed in Chinese Hamster Ovary (CHO) cells was used as a source of VAP-1 SSAO for activity measurements. […] The plates were incubated for 30 min at 37° C. and the background absorbance measured at 490 nm using a Wallac Victor II multilabel counter. […] The increase in absorbance, reflecting VAP-1 SSAO activity, was measured at 490 nm. […]
Entries annotated with measured Selectivity for VAP-1 SSAO over MAO
API doc: respond with a numeric literal and nothing else, no unit.

Reference set (4 entries):
# Molecule, Selectivity for VAP-1 SSAO over MAO
records = [
    ("COC(COc1ccc2ccccc2c1)CN(C)N.O=C(O)/C=C/C(=O)O (centres unmarked)", 5),
    ("CN(N)CC(O)CSc1ccccc1.O=C(O)/C=C/C(=O)O (centres unmarked)", 41),
    ("COc1cccc(OCC(O)CN(C)N)c1.O=C(O)/C=C/C(=O)O (centres unmarked)", 112),
    ("COc1ccc(SCC(O)CN(C)N)cc1OC.O=C(O)/C=C/C(=O)O (centres unmarked)", 195),
]

Moving on to the next molecule.
Quote Recombinant human VAP-1 SSAO (Homo sapiens, UniProt Q16853) Selectivity for VAP-1 SSAO over MAO for entry COC(CN(C)N)CN(C)c1ccccc1.O=C(O)/C=C/C(=O)O (centres unmarked) .
28
